assayText: Ataxia in mice (inverted screen procedure)
particulars: male, CF-1, in vivo, IV, mouse, read-out: IV Mouse Ataxia (ED50)
property: ED50

Output measured ED50 for this item: CC(C)CC(CN)CC(=O)O (racemic) [(R,S)-i-C4H9, H, 4-amino-3-(2-methylpropyl)butanoic acid] > 100 mg/kg

Output measured ED50 for this item: CC(C)C[C@@H](CN)CC(=O)O [(R)-IBG] > 100 mg/kg

Output measured ED50 for this item: CC(C)C[C@H](CN)CC(=O)O [(S)-IBG] > 300 mg/kg

###

assayTarget: Gabapentin Receptor (Rattus norvegicus)
Construct: partially purified synaptic plasma membranes were prepared from rat neocortex
Sequence (P54290 25-1091): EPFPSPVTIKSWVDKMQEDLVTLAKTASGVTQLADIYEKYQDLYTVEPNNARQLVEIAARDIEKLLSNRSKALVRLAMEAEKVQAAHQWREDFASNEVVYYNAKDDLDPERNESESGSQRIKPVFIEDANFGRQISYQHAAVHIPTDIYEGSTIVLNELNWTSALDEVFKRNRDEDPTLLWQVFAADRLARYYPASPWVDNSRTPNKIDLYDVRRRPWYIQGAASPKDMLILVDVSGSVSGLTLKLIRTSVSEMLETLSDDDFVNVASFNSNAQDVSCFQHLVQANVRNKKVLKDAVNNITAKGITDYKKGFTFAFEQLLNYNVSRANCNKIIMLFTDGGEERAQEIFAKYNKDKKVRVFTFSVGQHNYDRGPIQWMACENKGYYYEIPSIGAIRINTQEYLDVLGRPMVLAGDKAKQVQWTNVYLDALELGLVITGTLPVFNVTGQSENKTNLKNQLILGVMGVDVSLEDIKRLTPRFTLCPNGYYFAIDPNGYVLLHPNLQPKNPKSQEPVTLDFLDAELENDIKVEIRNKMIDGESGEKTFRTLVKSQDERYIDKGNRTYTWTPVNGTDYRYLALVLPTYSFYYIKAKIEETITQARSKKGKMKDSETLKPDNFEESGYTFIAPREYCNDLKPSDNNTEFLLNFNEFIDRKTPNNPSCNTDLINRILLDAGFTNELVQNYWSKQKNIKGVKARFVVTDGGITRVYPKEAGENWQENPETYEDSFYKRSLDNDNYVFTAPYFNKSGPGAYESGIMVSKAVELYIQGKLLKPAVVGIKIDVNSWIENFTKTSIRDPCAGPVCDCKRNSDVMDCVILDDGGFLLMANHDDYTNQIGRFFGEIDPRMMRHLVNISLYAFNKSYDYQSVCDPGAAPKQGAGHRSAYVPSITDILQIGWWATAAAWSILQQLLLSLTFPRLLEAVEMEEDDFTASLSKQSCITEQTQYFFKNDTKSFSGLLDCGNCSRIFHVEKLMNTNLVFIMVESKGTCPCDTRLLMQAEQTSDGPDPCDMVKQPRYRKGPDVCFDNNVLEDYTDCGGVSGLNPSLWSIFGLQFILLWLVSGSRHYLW
assayText: Gabapentin receptor binding, displacement of [3H]-gabapentin
property: IC50
The reply should read as a number followed by its unit.

// output IC50; input CC(C)C[C@H](CN)CC(=O)O [(S)-IBG] ; system Gabapentin Receptor (Rattus norvegicus) 44 nM

// output IC50; input CC(C)C[C@@H](CN)CC(=O)O [(R)-IBG] ; system Gabapentin Receptor (Rattus norvegicus) 860 nM

// output IC50; input CC(C)CC(CN)CC(=O)O (racemic) [(R,S)-i-C4H9, H, 4-amino-3-(2-methylpropyl)butanoic acid] ; system Gabapentin Receptor (Rattus norvegicus) 100 nM

###

assayText: Ataxia in mice (inverted screen procedure)
particulars: male, CF-1, in vivo, (IP), mouse, read-out: Mouse Ataxia (ED50)
property: ED50

Output measured ED50 for this item: NCC1(CC(=O)O)CCCCC1 [Gabapentin, gabapentin, reference compound] > 100 mg/kg

Source: patent US6414024B1
